system.under.test: PHD2 (EGLN1) (Homo sapiens (Human))
Sequence (Q9GZT9 whole entry): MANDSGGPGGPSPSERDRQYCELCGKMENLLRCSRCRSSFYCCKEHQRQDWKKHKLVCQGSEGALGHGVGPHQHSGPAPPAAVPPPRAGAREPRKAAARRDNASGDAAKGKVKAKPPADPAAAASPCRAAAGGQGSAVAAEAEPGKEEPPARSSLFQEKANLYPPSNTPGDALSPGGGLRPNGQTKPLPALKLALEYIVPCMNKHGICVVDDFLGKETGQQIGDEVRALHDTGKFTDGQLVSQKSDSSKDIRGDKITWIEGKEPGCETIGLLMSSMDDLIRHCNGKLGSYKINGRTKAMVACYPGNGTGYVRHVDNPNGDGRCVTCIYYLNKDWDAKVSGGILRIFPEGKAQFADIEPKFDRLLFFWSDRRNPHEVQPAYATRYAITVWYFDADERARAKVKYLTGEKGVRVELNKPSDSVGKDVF
protocol.text: HIF-PH assay (14CO2 capture), PHD2 enzyme inhibition
Format: biochemical
condition.details: Table 1; individual measurement; read-out: IC50 (μM) PHD2
measured.property: log10 IC50 (log10 of the value in µM)
Please interpret these as log10 of IC50 where IC50 is in µM.

Please supply the value of reported log10 IC50 for the item O=C(O)CCCCNC(=O)c1nc(-c2cncc(F)c2)c2cc(Oc3ccccc3)ccc2c1O [Compound 147] 1.89

Please supply the value of reported log10 IC50 for the item N#Cc1nc(C(=O)NCC(O)C(=O)O)c(O)c2ccc(Oc3ccccc3)cc12 (stereo not drawn) [Compound 76] 0.46

Please supply the value of reported log10 IC50 for the item N#Cc1nc(C(=O)NCCCCC(=O)O)c(O)c2ccc(Oc3ccccc3)cc12 [Compound 81] 0.69

Please supply the value of reported log10 IC50 for the item CC(C)(CNC(=O)c1nc(C#N)c2cc(Oc3ccccc3)ccc2c1O)C(=O)O [Compound 77] 0.96

Please supply the value of reported log10 IC50 for the item O=C(O)CCNC(=O)c1nc(-c2ccccc2)c2cc(Oc3ccccc3)ccc2c1O [Compound 144] 1.50

Please supply the value of reported log10 IC50 for the item N#Cc1nc(C(=O)NCCC(=O)O)c(O)c2ccc(-c3ccccc3)cc12 [Compound 137] 0.56

Please supply the value of reported log10 IC50 for the item O=C(O)CCNC(=O)c1ncc2cc(-c3ccc(F)cc3)ccc2c1O [Compound 132] 1.44

Please supply the value of reported log10 IC50 for the item N#Cc1nc(C(=O)N[C@H]2CCC[C@H]2C(=O)O)c(O)c2ccc(Oc3ccccc3)cc12 (relative stereo) [Compound 33] 1.98

Please supply the value of reported log10 IC50 for the item CC(C)(CNC(=O)c1nc(C#N)c2cc(Sc3ccccc3)ccc2c1O)C(=O)O [Compound 121] 0.91

Please supply the value of reported log10 IC50 for the item CC(=O)N[C@H](CCNC(=O)c1nc(C#N)c2cc(Oc3ccccc3)ccc2c1O)C(=O)O [Compound 51] 0.32

Please supply the value of reported log10 IC50 for the item N#Cc1nc(C(=O)NCC[C@@H](N)C(=O)O)c(O)c2ccc(Oc3ccccc3)cc12 [Compound 50] 1.66

Please supply the value of reported log10 IC50 for the item N#Cc1nc(C(=O)NCC(C(=O)O)c2ccc(F)cc2)c(O)c2ccc(Oc3ccccc3)cc12 (stereo not drawn) [Compound 181] 0.98

Please supply the value of reported log10 IC50 for the item N#Cc1nc(C(=O)NCCC(=O)O)c(O)c2ccc(Oc3ccccc3)cc12 [Compound 10] 0.12

Please supply the value of reported log10 IC50 for the item N#Cc1nc(C(=O)NCC2(C(=O)O)CCOCC2)c(O)c2ccc(Oc3ccccc3)cc12 [Compound 16] 1.39

Please supply the value of reported log10 IC50 for the item O=C(NCC1(C(=O)O)CCOCC1)c1ncc2cc(Oc3ccccc3)ccc2c1O [Compound 15] 1.71

Please supply the value of reported log10 IC50 for the item CC(C)(CCNC(=O)c1ncc2cc(Oc3ccccc3)ccc2c1O)C(=O)O [Compound 8] 2.08

Please supply the value of reported log10 IC50 for the item COC(=O)N[C@H](CCNC(=O)c1nc(C#N)c2cc(Oc3ccccc3)ccc2c1O)C(=O)O [Compound 53] 0.15

Please supply the value of reported log10 IC50 for the item COc1ccc(CNc2ccc3c(O)c(C(=O)NCC(C)(C)C(=O)O)ncc3c2)cc1 [Compound 126] 2.30

Please supply the value of reported log10 IC50 for the item Cn1nc(C(F)(F)F)cc1-c1nc(C(=O)NCC(C)(C)C(=O)O)c(O)c2ccc(Oc3ccccc3)cc12 [Compound 151] 2.05

Please supply the value of reported log10 IC50 for the item O=C(O)CCNC(=O)c1ncc2cc(NC(=O)NC3CCCCC3)ccc2c1O [Compound 130] 1.60

Please supply the value of reported log10 IC50 for the item O=C(NC[C@H](O)C(=O)O)c1ncc2cc(Oc3ccccc3)ccc2c1O [Compound 3] 1.19

Please supply the value of reported log10 IC50 for the item CC(C)(CNC(=O)c1nc(-c2ccccc2)c2cc(Oc3ccccc3)ccc2c1O)C(=O)O [Compound 143] 1.95

Please supply the value of reported log10 IC50 for the item N#Cc1c2cc(Oc3ccccc3)ccc2c(O)c(C(=O)NCCCC(=O)O)[n+]1[O-] [Compound 158] 1.32

Please supply the value of reported log10 IC50 for the item COc1ccc(CNc2ccc3c(O)c(C(=O)NCCCCC(=O)O)ncc3c2)cc1 [Compound 125] 2.20

Please supply the value of reported log10 IC50 for the item CC[C@H](CC(=O)O)NC(=O)c1nc(C#N)c2cc(Oc3ccccc3)ccc2c1O [Compound 63] 1.43

Please supply the value of reported log10 IC50 for the item N#Cc1nc(C(=O)NC[C@H](O)C(=O)O)c(O)c2ccc(Oc3ccccc3)cc12 [Compound 79] 0.23

Please supply the value of reported log10 IC50 for the item CC(C)(CNC(=O)c1nc(C#N)c2cc(Oc3cccc(Cl)c3)ccc2c1O)C(=O)O [Compound 39] 0.29

Please supply the value of reported log10 IC50 for the item CC(C)(CNC(=O)c1nc(C#N)c2cc(NC(=O)NCc3ccccc3)ccc2c1O)C(=O)O [Compound 162] 1.38

Please supply the value of reported log10 IC50 for the item N#Cc1ccc([C@H](CC(=O)O)NC(=O)c2nc(C#N)c3cc(Oc4ccccc4)ccc3c2O)cc1 [Compound 172] 1.44

Please supply the value of reported log10 IC50 for the item N#Cc1nc(C(=O)N[C@H](Cc2ccccc2)[C@@H](O)C(=O)O)c(O)c2ccc(Oc3ccccc3)cc12 [Compound 75] 1.28

Please supply the value of reported log10 IC50 for the item O=C(O)CCNC(=O)c1ncc2cc(NC(=O)c3ccc(F)cc3)ccc2c1O [Compound 118] 2.05

Please supply the value of reported log10 IC50 for the item Cc1cccc(C)c1Oc1ccc2c(C#N)nc(C(=O)NCCC(=O)O)c(O)c2c1 [Compound 109] 1.48

Please supply the value of reported log10 IC50 for the item N#Cc1nc(C(=O)NCCC(=O)O)c(O)c2ccc(Oc3ccc(F)cc3Cl)cc12 [Compound 97] 0.87
